List of refractive index values.
# assay remarks: refractive index (Na D-line) (dimensionless)
# measurement parameters: 298.15 K; 101.33 kPa; Liquid; Standard Abbe refractometry
± gives the expanded uncertainty stated by the source.
assay endpoint: refractive index

- CCCCCCC [heptane]: 1.38517 ± 0.00036
- CCCCCCCC[n+]1ccn(C)c1.F[B-](F)(F)F [1-methyl-3-octylimidazolium tetrafluoroborate]: 1.43329 ± 0.00069
- CCCCCCCCCCCC [dodecane]: 1.42011 ± 0.0004
- CCCCCCCCCCCCCCCC [hexadecane]: 1.43232 ± 0.0004
- c1ccsc1 [thiophene]: 1.52581 ± 0.00036
